assay.name: Stability of pure lycopene isomers in n-hexane during storage at room temperature
Assay type: physicochemical
reported.conditions: n-hexane, room temperature, absence of light, 33 days
Recorded concentration 13-Z for the following compounds

INSERT INTO measurements (smiles_code, measured_parameter, test_value) VALUES
  ('CC(C)=CCC/C(C)=C/C=C/C(C)=C/C=C/C(C)=C\C=C\C=C(C)\C=C\C=C(C)\C=C\C=C(/C)CCC=C(C)C', 'concentration 13-Z', '16.9 % of total isomers'),
  ('CC(C)=CCC/C(C)=C/C=C/C(C)=C\C=C\C(C)=C\C=C\C=C(C)\C=C\C=C(C)\C=C\C=C(/C)CCC=C(C)C', 'concentration 13-Z', '10.5 % of total isomers'),
  ('CC(C)=CCC/C(C)=C/C=C/C(C)=C/C=C/C(C)=C/C=C/C=C(C)/C=C/C=C(C)/C=C/C=C(\C)CCC=C(C)C', 'concentration 13-Z', '15.7 % of total isomers');

Kindly consider the entry below.
Q) For the compound shown here, CC(C)=CCC\C(C)=C/C=C/C(C)=C/C=C/C(C)=C/C=C/C=C(C)/C=C/C=C(C)/C=C/C=C(\C)CCC=C(C)C , give the reported concentration 13-Z.
A) 2.8 % of total isomers

* * *

assay.name: Stability of pure lycopene isomers in n-hexane during storage at room temperature
Type: physicochemical
reported.conditions: n-hexane, room temperature, absence of light, 0 days
measured.parameter: concentration x-Z

Before answering, review these 3 worked examples.
INSERT INTO assay_data (compound, test_value) VALUES
  ('CC(C)=CCC/C(C)=C/C=C/C(C)=C/C=C/C(C)=C\C=C\C=C(C)\C=C\C=C(C)\C=C\C=C(/C)CCC=C(C)C [13-Z lycopene]', '1.0 % of total isomers'),
  ('CC(C)=CCC/C(C)=C/C=C/C(C)=C\C=C\C(C)=C\C=C\C=C(C)\C=C\C=C(C)\C=C\C=C(/C)CCC=C(C)C [9-Z lycopene]', '0 % of total isomers'),
  ('CC(C)=CCC\C(C)=C/C=C/C(C)=C/C=C/C(C)=C/C=C/C=C(C)/C=C/C=C(C)/C=C/C=C(\C)CCC=C(C)C [5-Z lycopene]', '3.4 % of total isomers');

Kindly consider the entry below.
Q) For the compound shown here, CC(C)=CCC/C(C)=C/C=C/C(C)=C/C=C/C(C)=C/C=C/C=C(C)/C=C/C=C(C)/C=C/C=C(\C)CCC=C(C)C [all-E lycopene] , give the reported concentration x-Z.
A) 0.1 % of total isomers
